assay: Inhibition of beta-tryptase (unknown origin); design: species or system Homo sapiens
Measurement Label: Ki (nM)
Numeric answer only, unit nM assumed.

response.value for NCc1cccc(OCC2CN(c3ccc(Cl)c(Cl)c3)C(=O)O2)c1 (configuration not stated) (field: Ki) = 50

response.value for NCc1ccc(C2CCN(C(=O)c3ccc(Cl)c(Cl)c3)CC2)cc1 (field: Ki) = 80

---

experiment: Aqueous solubility of the compound in lyophilized phosphate buffer at pH 6.5 by spectrophotometric analysis; assay type: physicochemical
Please respond with reported solubility for every item in the list.
Numeric answer only, unit µg/mL assumed.

response.value for O=C(O)CNC(=O)CCc1cc(Cl)c(Oc2ncccc2C(=O)N2CCCc3ccccc32)cc1Cl (field: solubility) = 565

response.value for Cc1cc(NC(=O)c2cc(Cl)c(Oc3ncccc3C(=O)N3CCCc4ccccc43)cc2Cl)sc1C(=O)O (field: solubility) = 80

response.value for O=C(O)CCc1cc(Cl)c(Oc2ncccc2C(=O)N2CCCc3ccccc32)cc1Cl (field: solubility) = 234

response.value for O=C(NCCO)c1cc(Cl)c(Oc2ncccc2C(=O)N2CCCc3ccccc32)cc1Cl (field: solubility) = 110
